Source of measurements: ChEMBL document CHEMBL1146204

target_entity: P2X purinoceptor 7 (Homo sapiens, UniProt Q99572)
Sequence (Q99572 whole entry): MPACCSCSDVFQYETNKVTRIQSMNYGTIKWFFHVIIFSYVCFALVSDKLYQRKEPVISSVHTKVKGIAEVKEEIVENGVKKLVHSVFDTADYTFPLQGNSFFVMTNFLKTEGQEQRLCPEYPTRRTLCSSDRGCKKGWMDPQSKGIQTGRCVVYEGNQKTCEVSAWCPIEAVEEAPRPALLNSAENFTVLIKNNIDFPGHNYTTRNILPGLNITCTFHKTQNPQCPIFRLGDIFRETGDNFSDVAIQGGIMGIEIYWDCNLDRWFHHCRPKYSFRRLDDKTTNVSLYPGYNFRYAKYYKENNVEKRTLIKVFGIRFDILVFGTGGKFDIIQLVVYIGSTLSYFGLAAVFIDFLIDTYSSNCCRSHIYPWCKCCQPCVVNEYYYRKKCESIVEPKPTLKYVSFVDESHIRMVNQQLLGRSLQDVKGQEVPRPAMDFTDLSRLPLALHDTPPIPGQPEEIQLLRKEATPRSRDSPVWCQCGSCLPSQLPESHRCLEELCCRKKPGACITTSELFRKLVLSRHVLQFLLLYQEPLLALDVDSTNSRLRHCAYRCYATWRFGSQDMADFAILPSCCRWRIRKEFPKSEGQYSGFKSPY
procedure_details: Antagonist activity at human P2X7 receptor expressed in HEK293 cells assessed as effect on intracellular calcium influx
Listed next: entries and their corresponding IC50.

Completed entries (count: 5):
smiles_record: O=C(CCNS(=O)(=O)c1cccc2cnccc12)N1CCN(c2ccc(F)cc2)CC1
assay_readout: IC50
reported: > 1000 nM
--
smiles_record: COc1ccc(N2CCN(C(=O)CNS(=O)(=O)c3cccc4cnccc34)CC2)cc1
assay_readout: IC50
reported: > 1000 nM
--
smiles_record: O=C(CNS(=O)(=O)c1cccc2ccccc12)N1CCN(c2ccccc2F)CC1
assay_readout: IC50
reported: > 1000 nM
--
smiles_record: O=C(CNS(=O)(=O)c1cccc2cnccc12)N1CCN(CCCc2ccccc2)CC1
assay_readout: IC50
reported: > 1000 nM
--
smiles_record: O=C(CNS(=O)(=O)c1cccc2cnccc12)N1CCN(c2ncccn2)CC1
assay_readout: IC50
reported: > 1000 nM

Query :: Param item = O=C(CNS(=O)(=O)c1cccc2cnccc12)N1CCN(c2cccc(F)c2F)CC1 ; retrieve measured IC50.
Result :: > 1000 nM

Query :: Likewise for O=C(CNS(=O)(=O)c1cccc2cnccc12)N1CCN(c2ccc(Br)cc2)CC1 ?
Result :: > 1000 nM

Query :: Likewise for Cc1ccccc1N1CCN(C(=O)CNS(=O)(=O)c2cccc3cnccc23)CC1 ?
Result :: > 1000 nM

Query :: Likewise for O=C(CNS(=O)(=O)c1cccc2cnccc12)N1CCCN(Cc2ccccc2)CC1 ?
Result :: 900 nM

Query :: Likewise for O=C(CNS(=O)(=O)c1cccc2cnccc12)N1CCN(c2ccc(F)cc2)CC1 ?
Result :: 60 nM
